Hey, just so you know, these numbers are from PubChem BioAssay (NCI).

Consider the following compounds and their measured growth inhibition readings.
experiment-summary: NCI Yeast Anticancer Drug Screen. Data for the bub3 strain (AID 167)
condition-notes: S. cerevisiae bub3 mutant strain, at 50.0 µM, hits give high values
About 79,000 compounds went through this panel and 15% of them were active in at least one assay; those are over-represented in the sample as a whole.

compound: O=C(CCCl)Nc1cccc(CCC(=O)c2ccccc2NC(=O)CCCl)c1
result-units: %
growth inhibition: -7.1
--
compound: CC(=O)NC1C(OC(C)C(=O)NC(C(=O)NC(CCC(=O)NCCCNC2c3ccccc3Nc3cccc([N+](=O)[O-])c32)C(N)=O)C(C)C)C(O)C(CO)OC1(C)OCc1ccccc1 (stereo not given)
result-units: %
growth inhibition: -25.8
--
compound: CC(O)CN(Cc1ccccc1)CC(C)O (stereo not given)
result-units: %
growth inhibition: -3.5
--
compound: NCCNCCCNC(=O)c1cc(-c2ccccc2)nc2ccccc12
result-units: %
growth inhibition: 14.9
--
compound: CN(C)C(=O)CCCC(=O)c1cccc([N+](=O)[O-])c1
result-units: %
growth inhibition: 16
